B1: CPEB3 Ribozyme (parent)
chain: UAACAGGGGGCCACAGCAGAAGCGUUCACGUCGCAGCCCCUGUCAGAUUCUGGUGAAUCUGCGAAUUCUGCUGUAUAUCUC

Variants of: B1
Measurement description: self-cleavage, relative activity (ratio to wild type); higher = more cleavage; in vitro, sequencing
Decide by self-cleavage: equal to or exceeding 0.7 means satisfied, less means not satisfied.

These recorded examples may help you get a feel for the data.
C37U C40G; not satisfied
A28G C68A; not satisfied
A35G A56C; satisfied
A20G U51G; satisfied
U43C U72A; not satisfied

Is self-cleavage at least 0.7? Consider U51G
satisfied

Can you check C44A U78C next?
not satisfied

Can you check U51C A75U next?
satisfied

Can you check U60C C81U next?
satisfied

Can you check A21G C32G next?
not satisfied
